- Tested on: HCT 116 (colon)
- protocol notes: Cytotoxicity on human cells, automated nuclei counting: HCT 116
- Type: cell-based
- condition description: HCT 116 cells, exposed 24 h to 48 h, 0.1 to 25 μM
So basically: is IC50 under 4 µM? Then 1.0. Not under? Then 0.0.

Completed entries (count: 5):
Exam item: Hi there! Is IC50 for O=C1CCN2C(=O)c3cccc(NC(=O)Nc4cnccn4)c3C2C1 (stereo not drawn) below 4 µM, do you know?
Marked response: 0.0

Exam item: Hi there! Is IC50 for O=C(Nc1nc2ccccc2s1)Nc1cccc2c1C1CCCCN1C2=O (stereo not drawn) below 4 µM, do you know?
Marked response: 1.0

Exam item: Hi there! Is IC50 for Cc1cccc(NC(=O)Nc2cccc3c2C2CC4(CCN2C3=O)OCCO4)n1 (stereo not drawn) below 4 µM, do you know?
Marked response: 0.0

Exam item: Hi there! Is IC50 for COC1CCN2C(=O)c3cccc(NC(=O)Nc4cc(C)ccn4)c3C2C1 (stereo not drawn) below 4 µM, do you know?
Marked response: 1.0

Exam item: Hi there! Is IC50 for O=C(Nc1cccc2c1C1CCCCN1C2=O)Nc1nc(Cl)c(Cl)c(Cl)c1Cl (stereo not drawn) below 4 µM, do you know?
Marked response: 1.0

New cases:
Exam item: Hi there! Is IC50 for O=C1CCN2C(=O)c3cccc(NC(=O)Nc4ccccn4)c3C2C1 (stereo not drawn) below 4 µM, do you know?
Marked response: 1.0

Exam item: Hi there! Is IC50 for O=C1c2cccc(NC(=S)Nc3ccccn3)c2C2CCCCN12 (stereo not drawn) below 4 µM, do you know?
Marked response: 0.0

Exam item: Hi there! Is IC50 for O=C1c2cccc(NC(=S)Nc3ccccn3)c2C2CC3(CCN12)SCCS3 (stereo not drawn) below 4 µM, do you know?
Marked response: 1.0
